# method-notes: Cytotoxicity against human 73M cells assessed as cell viability after 8 days by Alamar Blue assay
# Type: functional, cell-based
# run-conditions: 192 h
I'd appreciate it if you could supply pIC50 values for the items below.
Answers are plain numbers, as −log10 of the molar value.

CN(CC(=O)N(Cc1ccc(C2CCCCC2)cc1)c1ccc(C(=O)O)cc1)S(=O)(=O)c1c(F)c(F)c(F)c(F)c1F = 5.99

Next, consider the following compound.
Which value of pIC50 has been reported for `C[C@H](NC(=O)/C(C#N)=C/c1cccc(Br)n1)c1ccccc1` in the records?
5.68

###

# measured-target: Signal transducer and activator of transcription 3 (Homo sapiens, UniProt P40763)
# Sequence (P40763 whole entry, the tested form may be a part): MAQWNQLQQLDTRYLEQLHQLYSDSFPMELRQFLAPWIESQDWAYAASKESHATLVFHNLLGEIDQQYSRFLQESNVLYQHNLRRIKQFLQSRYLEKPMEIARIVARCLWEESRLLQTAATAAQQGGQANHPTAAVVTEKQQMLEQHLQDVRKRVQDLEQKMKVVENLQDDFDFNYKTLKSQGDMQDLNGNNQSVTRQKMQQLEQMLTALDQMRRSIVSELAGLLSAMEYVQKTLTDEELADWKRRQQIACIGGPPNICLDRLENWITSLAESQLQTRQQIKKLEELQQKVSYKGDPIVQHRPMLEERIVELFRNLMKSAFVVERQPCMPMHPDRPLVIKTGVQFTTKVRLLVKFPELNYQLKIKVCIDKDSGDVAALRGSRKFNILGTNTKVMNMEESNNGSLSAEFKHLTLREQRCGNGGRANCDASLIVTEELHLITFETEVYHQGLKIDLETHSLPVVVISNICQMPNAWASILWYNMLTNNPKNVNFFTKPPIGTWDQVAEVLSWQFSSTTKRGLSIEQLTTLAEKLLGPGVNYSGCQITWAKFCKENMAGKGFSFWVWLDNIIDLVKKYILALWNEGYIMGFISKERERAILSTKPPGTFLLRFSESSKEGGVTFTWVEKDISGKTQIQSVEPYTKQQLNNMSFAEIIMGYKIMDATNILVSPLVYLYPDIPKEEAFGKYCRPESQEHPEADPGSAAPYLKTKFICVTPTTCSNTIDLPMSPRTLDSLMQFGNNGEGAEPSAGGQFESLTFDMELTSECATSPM
# method-notes: Competitive binding affinity to STAT3 SH2 domain (unknown origin) assessed as inhibition of interaction with FAMpYLPQTV after 15 to 30 mins by fluorescent polarization assay
attribute-measured: Ki

// fetch Signal transducer and activator of transcription 3 (Homo sapiens, UniProt P40763) Ki for `CN(CC(=O)N(Cc1ccc(C2CCCCC2)cc1)c1ccc(C(=O)O)c(F)c1)S(=O)(=O)c1c(F)c(F)c(F)c(F)c1F`
10 µM

###

# method-notes: Cytotoxicity against human 84EF cells assessed as cell viability after 3 days by Alamar Blue assay
# run-conditions: 72 h
Record form. Attribute: pIC50. Fill in for each entry.
One number for each entry, as −log10 of the molar value.

CN(CC(=O)N(Cc1ccc(C2CCCCC2)cc1)c1ccc(C(=O)O)c(F)c1)S(=O)(=O)c1c(F)c(F)c(F)c(F)c1F = 6.69
CC(=O)Oc1cc(N(Cc2ccc(C3CCCCC3)cc2)C(=O)CN(C)S(=O)(=O)c2c(F)c(F)c(F)c(F)c2F)ccc1C(=O)O = 6.48

Would you kindly look at the next entry?
For the compound shown here, `CN(CC(=O)N(Cc1ccc(C2CCCCC2)cc1)c1ccc(C(=O)O)cc1)S(=O)(=O)c1c(F)c(F)c(F)c(F)c1F` , give the reported pIC50.
6.99
